Ref: paper PMC12040169

Hi there, I'd appreciate the recorded viability at 28.5 h, 10 µM for every entry that follows.
assay: in vitro; settings: human, hela cells, % viability
Respond with the bare value in %.

Q: Look at this compound and give its reported viability at 28.5 h, 10 µM. CCCc1ccc(S(=O)(=O)NCC(=O)OCC)cc1 [CBK034429]
Result: 113

Q: Look at this compound and give its reported viability at 28.5 h, 10 µM. Clc1ccc(CN2CCN(Cc3ccc(Cl)cc3)C2c2ccncc2)cc1 [CBK265207]
Result: 104

Q: Look at this compound and give its reported viability at 28.5 h, 10 µM. O=C(N[C@H]1CO[C@H]2[C@@H]1OC[C@@H]2n1nnnc1-c1ccccc1)c1ccccc1 [CBK289482]
Result: 120

Q: Look at this compound and give its reported viability at 28.5 h, 10 µM. O=C(c1ccc(S(=O)(=O)N2CCCCC2)cc1)N1CCN(CCN2C(=O)c3cccc4cccc(c34)C2=O)CC1 [CBK262536]
Result: 79.3

Q: Look at this compound and give its reported viability at 28.5 h, 10 µM. OCCn1ncc2c(NCc3cccc(Cn4ccnc4)c3)ncnc21 [CBK304184]
Result: 90.3

Q: Look at this compound and give its reported viability at 28.5 h, 10 µM. Cc1ccc(C(=O)Nc2ccc(C)nc2C)cn1 [CBK200289]
Result: 89.6

Q: Look at this compound and give its reported viability at 28.5 h, 10 µM. COc1cc(C2=NS(=O)(=O)NC3=C2CCCC3)cc(OC)c1OC [CBK010423]
Result: 90.3

Q: Look at this compound and give its reported viability at 28.5 h, 10 µM. Cc1nccn1CCCn1cncc1-c1ccc2c(c1)CC(C)N2C (stereo not drawn) [CBK281818]
Result: 87.8

Q: Look at this compound and give its reported viability at 28.5 h, 10 µM. COc1cccc(CC(=O)N2CCC(Cc3cccc(-c4cccs4)c3)(C(N)=O)CC2)c1 [CBK285738]
Result: 96.4

* * *

Hi there, I'd appreciate the recorded viability at 28.5 h, 10 µM for every entry that follows.
test: in vitro; settings: human, hela cells, % viability
Form field: result (number plus unit)

Q: Look at this compound and give its reported viability at 28.5 h, 10 µM. O=C(O)CCC(=O)N1N=C(c2c(-c3ccccc3)c3cc(Br)ccc3[nH]c2=O)CC1c1ccc([N+](=O)[O-])cc1 (stereo not shown)
Result: 104%

Q: Look at this compound and give its reported viability at 28.5 h, 10 µM. Cn1ncc(Cl)c1C1CCCCCN1C(=O)c1ccco1 (stereo not shown)
Result: 104%

Q: Look at this compound and give its reported viability at 28.5 h, 10 µM. c1cncc(CN2CCCC(OCc3nc(-c4ccncc4)no3)C2)c1 (stereo not shown)
Result: 114%

Q: Look at this compound and give its reported viability at 28.5 h, 10 µM. Cc1noc(C)c1C(=O)Nc1ccc(N2CCOCC2)c2nonc12
Result: 94.7%

Q: Look at this compound and give its reported viability at 28.5 h, 10 µM. COCc1cn([C@H]2CO[C@H]3[C@@H]2OC[C@H]3OC(=O)Nc2ccc(C)cc2)nn1
Result: 90.6%

Q: Look at this compound and give its reported viability at 28.5 h, 10 µM. CCCCNC(=O)NC1CCCC1
Result: 101%

Q: Look at this compound and give its reported viability at 28.5 h, 10 µM. CN(C)CCOC(=O)C1CCCCCN1C (stereo not shown) [CBK278175G]
Result: 97.8%

Q: Look at this compound and give its reported viability at 28.5 h, 10 µM. Cc1nccn1CCCn1cncc1-c1ccc2c(c1)CC(C)(C)O2
Result: 106%

Q: Look at this compound and give its reported viability at 28.5 h, 10 µM. CCc1nc2c(OCc3ccccc3)cccn2c1N(C)C(=O)c1ccncc1
Result: 90%

Q: Look at this compound and give its reported viability at 28.5 h, 10 µM. COc1ccc([C@@]23CCC(NC(=O)Nc4ccc5c(c4)Cc4ccccc4-5)C[C@@H]2N(C)CC3)cc1OC (stereo partly shown) [CBK047550T]
Result: 85.9%

Q: Look at this compound and give its reported viability at 28.5 h, 10 µM. O=C(Nc1ccc(F)c(F)c1)c1cnc2sccn2c1=O
Result: 104%

Q: Look at this compound and give its reported viability at 28.5 h, 10 µM. CN(C)c1nc(NCc2ccccc2)nc(SCC(=O)Nc2ccc(Cl)c(Cl)c2)n1
Result: 97%

Q: Look at this compound and give its reported viability at 28.5 h, 10 µM. CCCCOc1ccc(S(=O)(=O)N2CCN(c3cccc(C)c3C)CC2)cc1
Result: 114%

Q: Look at this compound and give its reported viability at 28.5 h, 10 µM. O=C(C1CCCN1)N1CC2(CCCC2)c2c(F)cccc21 (stereo not shown)
Result: 90.1%

Q: Look at this compound and give its reported viability at 28.5 h, 10 µM. O=c1n(C(c2ccccc2)c2ccccc2)ccn1S(=O)(=O)c1cccc(Cl)c1
Result: 91.5%

Q: Look at this compound and give its reported viability at 28.5 h, 10 µM. Nc1nc(CC(=O)N2CCCCC2)cs1
Result: 97.9%

Q: Look at this compound and give its reported viability at 28.5 h, 10 µM. O=c1oc(-c2cccnc2)nn1Cc1ccccc1F
Result: 87.1%

Q: Look at this compound and give its reported viability at 28.5 h, 10 µM. Cc1cc(C(=O)N2CCC3(C/C=C/CCOc4ccccc4C(=O)NCCCNC3=O)CC2)no1
Result: 92.6%

Q: Look at this compound and give its reported viability at 28.5 h, 10 µM. COCCNc1nccnc1-c1cnc(OC)nc1OC
Result: 109%

* * *

assay: in vitro; conditions: human, hela cells, % viability
Hi there, I'd appreciate the recorded viability at 28.5 h, 10 µM for every entry that follows.
Respond with the bare value in %.

Q: Look at this compound and give its reported viability at 28.5 h, 10 µM. O=C(c1ccc(-c2nccnc2NCc2ccco2)cc1)N1CCOCC1 [CBK036920]
Result: 98.6

Q: Look at this compound and give its reported viability at 28.5 h, 10 µM. Cc1ccccc1Sc1cccc(C(F)(F)F)n1 [CBK115243]
Result: 103

Q: Look at this compound and give its reported viability at 28.5 h, 10 µM. COc1cccc(-c2n[nH]c3c2C(c2cccnc2)NC3=O)c1 (stereo not drawn) [CBK288238]
Result: 86.3

Q: Look at this compound and give its reported viability at 28.5 h, 10 µM. COc1ccc2[nH]c(=O)c(CN(CCCN3CCOCC3)C(=O)Nc3cccc(Cl)c3)cc2c1 [CBK135402]
Result: 96.8

Q: Look at this compound and give its reported viability at 28.5 h, 10 µM. O=S1(=O)c2cc(/N=C/c3c(O)ccc4ccccc34)ccc2-c2ccc(/N=C/c3c(O)ccc4ccccc34)cc21 [CBK261240]
Result: 84.7

Q: Look at this compound and give its reported viability at 28.5 h, 10 µM. CC1CCCN(C(=O)CCn2c(-c3ccncc3)cc3cccnc32)C1 (stereo not drawn) [CBK282152]
Result: 108

Q: Look at this compound and give its reported viability at 28.5 h, 10 µM. Cc1ccc(S(=O)(=O)N(C)c2ccnc(N3CCN(C)CC3)n2)cc1 [CBK000671]
Result: 99.4

Q: Look at this compound and give its reported viability at 28.5 h, 10 µM. c1ccc(-c2n[nH]c(-c3ccncc3)c2-c2nc3ccccc3[nH]2)cc1 [CBK262180]
Result: 88

Q: Look at this compound and give its reported viability at 28.5 h, 10 µM. Nc1ncc(-c2ccncc2)nc1NC1CCCCC1 [CBK063604]
Result: 80.9

Q: Look at this compound and give its reported viability at 28.5 h, 10 µM. O=C(Nc1cccc(OC(=O)c2cccc(S(=O)(=O)N3CCOCC3)c2)c1)c1ccccc1 [CBK261365]
Result: 85.5

Q: Look at this compound and give its reported viability at 28.5 h, 10 µM. CCN(CC)C(=O)C1CCCN(C(=O)NCc2ccc3c(c2)OCO3)C1 (stereo not drawn) [CBK156121]
Result: 100

Q: Look at this compound and give its reported viability at 28.5 h, 10 µM. C[C@H]1[C@@H]2[C@@H](O)C([C@H](C)C(=O)N3CCCCC3)CC[C@@]2(C)CC[C@@H]1NC(=O)c1cnccn1 (stereo partly drawn) [CBK289448]
Result: 111

Q: Look at this compound and give its reported viability at 28.5 h, 10 µM. O=C(Nc1cccc(Cl)c1)N1CCCC(c2nc(-c3ccccc3)c3ccccn23)C1 (stereo not drawn) [CBK047233]
Result: 90.4

Q: Look at this compound and give its reported viability at 28.5 h, 10 µM. CC(C)S(=O)(=O)n1c(=O)n(CC(=O)c2csc3ccccc23)c2ccccc21 [CBK106559]
Result: 99.8

Q: Look at this compound and give its reported viability at 28.5 h, 10 µM. CCCc1ccc(S(=O)(=O)Nc2ccc(C(=O)N3CCN(C)CC3)cc2)cc1 [CBK034547]
Result: 90.1

Q: Look at this compound and give its reported viability at 28.5 h, 10 µM. Nc1ncc(-c2ccco2)nc1N1CCOCC1 [CBK063456]
Result: 80.2

Q: Look at this compound and give its reported viability at 28.5 h, 10 µM. O=S(=O)(c1ccc(C(F)(F)F)cc1Cl)N1CCCN(Cc2ccc3cccc(O)c3n2)CC1 [CBK063036]
Result: 101

Q: Look at this compound and give its reported viability at 28.5 h, 10 µM. COc1cc(-c2cncc(Nc3cccc(C(F)(F)F)c3)n2)cc(OC)c1OC [CBK065213]
Result: 120
